The measured values listed here are drawn from the supplement of paper PMC10065799.

# System: c-Abl (mouse);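 note: 11-residue human phosphosite peptides and single-mutation variants displayed on the E. coli surface, counted by deep sequencing, each peptide's frequency after selection divided by its frequency in the unselected input library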;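 note: frequency after pTyr selection over input frequency; kinase dosed for 20-30% of maximal phosphorylation in three min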
# Experimental Details: phosphorylation enrichment, bacterial display (enrichment ratio); higher = better substrate or ligand; peptides without Tyr show the background
Listing of entries alongside the reported phosphorylation enrichment.
Lab note: jot the number down without any unit.

Consider the reported phosphorylation enrichment for these sequences:
CTTSHYNFMCN [TP53_Y234_I232S_YF] ... 0.613
FPHVISARLWR [SMAD4_Y95_Y95S] ... 0.701
KQINDYVEKGT [SERPINA1_Y184] ... 0.546
KPPPSYESEEE [BRD4_Y599_T598S] ... 0.957
RELGEYGLQAY [ALDH2_Y497] ... 0.962

Q) Report phosphorylation enrichment for KKFFSYAWPFF [BRDT_Y291_H288Y_YF] please.
A) 0.611

Q) What about EPFKVYRIVPE [IRF8_Y110_YF] ?
A) 0.43
